Assay: Approximate solubility in MeOH/MTBE at room temperature
Format: physicochemical
Details: MeOH/MTBE (v/v, 1:2), organic solvent or mixture, read-out: approximate solubility in MeOH/MTBE (v/v, 1:2)
READOUT KIND: solubility

Ask: Return reported solubility. Input molecule: Cc1ccc(S(=O)(=O)O)cc1.Cn1cc(-c2cn(-c3ccc(OC(F)(F)F)cc3)c(=O)c3ncn(C)c23)cn1 [mono-tosylate]
Reply: 9.3 to 18.6 mg/mL

* * *

Test: Example 19 crossover pharmacokinetics of four oral tablet formulations in fasted dogs
Format: in vivo, beagle dogs
Conditions: male, beagle, dog, plasma, po, 200 mg/tablet/dog, Example 19, fasted dogs, 200 mg tablet PO, mean; LOQ 1.02 to 5.1 ng/mL; read-out: Plasma concentration of Compound I at 48 hours
READOUT KIND: concentration at 48 h (ng/mL)
Write down the numeric answer in ng/mL and omit the unit.

Ask: Read off the recorded concentration at 48 h for Cc1ccc(S(=O)(=O)O)cc1.Cn1cc(-c2cn(-c3ccc(OC(F)(F)F)cc3)c(=O)c3ncn(C)c23)cn1 [mono-tosylate]
Reply: 105

* * *

Assay: Solubility in pure water at 25° C. with PXRD of solid residues
Assay type: physicochemical
Settings: pH of solubility sample, pure water, 25° C., 24 hours
READOUT KIND: pH (24 hrs)
Answer as a number with no unit attached.

Ask: Indicate its recorded pH (24 hrs); the compound in question is Cc1ccc(S(=O)(=O)O)cc1.Cn1cc(-c2cn(-c3ccc(OC(F)(F)F)cc3)c(=O)c3ncn(C)c23)cn1 [mono-tosylate]
Reply: 1.53

Ask: Supply recorded pH (24 hrs) for Cn1cc(-c2cn(-c3ccc(OC(F)(F)F)cc3)c(=O)c3ncn(C)c23)cn1.O=[N+]([O-])O [mono-nitrate crystalline] here.
Reply: 1.8

Ask: Give pH (24 hrs) for the following compound: Br.Br.Cn1cc(-c2cn(-c3ccc(OC(F)(F)F)cc3)c(=O)c3ncn(C)c23)cn1 [di-HBr crystalline]
Reply: 1.6

Ask: Determine its reported pH (24 hrs): Cn1cc(-c2cn(-c3ccc(OC(F)(F)F)cc3)c(=O)c3ncn(C)c23)cn1.Cn1cc(-c2cn(-c3ccc(OC(F)(F)F)cc3)c(=O)c3ncn(C)c23)cn1.O=S(=O)(O)CCS(=O)(=O)O [hemi-edisylate]
Reply: 1.48

Ask: Recall and state the measured pH (24 hrs) for Cn1cc(-c2cn(-c3ccc(OC(F)(F)F)cc3)c(=O)c3ncn(C)c23)cn1.Cn1cc(-c2cn(-c3ccc(OC(F)(F)F)cc3)c(=O)c3ncn(C)c23)cn1.O=S(=O)(O)c1cccc2c(S(=O)(=O)O)cccc12 [hemi-napadisylate] .
Reply: 1.53

* * *

Test: Solubility in pure water at 25° C. with PXRD of solid residues
Assay type: physicochemical
Conditions: water, 25 °C, water, thermodynamic from solid; Table 4: free base and amorphous salt forms
READOUT KIND: solubility at 24 h (µg/mL)
Note: unit µg/mL is implicit; provide only the numeric part.

Ask: Dear colleague, please send me the reported solubility at 24 h for Cn1cc(-c2cn(-c3ccc(OC(F)(F)F)cc3)c(=O)c3ncn(C)c23)cn1 when you can.
Reply: 57

* * *

Experiment: Example 20 crossover pharmacokinetics of two oral tablet formulations in dogs under fed conditions
Assay type: in vivo, beagle dogs
Settings: male, beagle, dog, plasma, po, 200 mg/tablet/dog, Example 20, fed dogs, 200 mg tablet PO, mean; LLOQ 20 ng/mL; read-out: Plasma concentration of Compound I at 24 hours
READOUT KIND: concentration at 24 h (ng/mL)
The reply should be a number in ng/mL, with the unit left off.

Ask: Return concentration at 24 h (reported value) for this compound: Cc1ccc(S(=O)(=O)O)cc1.Cn1cc(-c2cn(-c3ccc(OC(F)(F)F)cc3)c(=O)c3ncn(C)c23)cn1 [mono-tosylate]
Reply: 847

* * *

Assay: Example 20 crossover pharmacokinetics of two oral tablet formulations in dogs under fed conditions
Assay type: in vivo, beagle dogs
Conditions: male, beagle, dog, plasma, po, 200 mg/tablet/dog, Example 20, fed dogs, 200 mg tablet PO, mean; LLOQ 20 ng/mL; read-out: Plasma concentration of Compound I at 8 hours
READOUT KIND: concentration at 8 h (ng/mL)
Numbers only; they are read as ng/mL.

Ask: Query concentration at 8 h for Cc1ccc(S(=O)(=O)O)cc1.Cn1cc(-c2cn(-c3ccc(OC(F)(F)F)cc3)c(=O)c3ncn(C)c23)cn1 [mono-tosylate]
Reply: 2460

* * *

Experiment: Example 19 crossover pharmacokinetics of four oral tablet formulations in fasted dogs
Type: in vivo, beagle dogs
Details: male, beagle, dog, plasma, po, 200 mg/tablet/dog, Example 19, fasted dogs, 200 mg tablet PO, mean; LOQ 1.02 to 5.1 ng/mL; read-out: Plasma concentration of Compound I at 24 hours
READOUT KIND: concentration at 24 h

Ask: Check the records and state concentration at 24 h for Cc1ccc(S(=O)(=O)O)cc1.Cn1cc(-c2cn(-c3ccc(OC(F)(F)F)cc3)c(=O)c3ncn(C)c23)cn1 [mono-tosylate]
Reply: 1070 ng/mL

* * *

Assay: Dissolution and precipitation in pH 6.5 phosphate buffer at 37° C. containing HPMC
Assay type: physicochemical
Details: aqueous buffer
READOUT KIND: solubility

Ask: Specify measured solubility for Cn1cc(-c2cn(-c3ccc(OC(F)(F)F)cc3)c(=O)c3ncn(C)c23)cn1 .
Reply: ~80 µg/mL

* * *

Experiment: Example 20 crossover pharmacokinetics of two oral tablet formulations in dogs under fed conditions
Type: in vivo, beagle dogs
Details: male, beagle, dog, plasma, po, 200 mg/tablet/dog, Example 20, fed dogs, 200 mg tablet PO, mean; LLOQ 20 ng/mL; read-out: Plasma concentration of Compound I at 0.25 hours
READOUT KIND: concentration at 0.25 h (ng/mL)
The reply should be a number in ng/mL, with the unit left off.

Ask: Fill in concentration at 0.25 h for record Cc1ccc(S(=O)(=O)O)cc1.Cn1cc(-c2cn(-c3ccc(OC(F)(F)F)cc3)c(=O)c3ncn(C)c23)cn1 [mono-tosylate]
Reply: 70.3

* * *

Assay: Solubility in pure water at 25° C. with PXRD of solid residues
Assay type: physicochemical
Conditions: pH of solubility sample, pure water, 25° C., 24 hours
READOUT KIND: pH (24 hrs)
The answer should be written as a number, with no unit following it.

Ask: Identify the reported pH (24 hrs) for the following entry. Cn1cc(-c2cn(-c3ccc(OC(F)(F)F)cc3)c(=O)c3ncn(C)c23)cn1.O=[N+]([O-])O [mono-nitrate amorphous]
Reply: 1.9

Ask: Tell me pH (24 hrs) reported for Cl.Cn1cc(-c2cn(-c3ccc(OC(F)(F)F)cc3)c(=O)c3ncn(C)c23)cn1 [mono-HCl crystalline]
Reply: 1.6

Ask: Input Cl.Cl.Cn1cc(-c2cn(-c3ccc(OC(F)(F)F)cc3)c(=O)c3ncn(C)c23)cn1 [di-HCl crystalline] , output reported pH (24 hrs).
Reply: 1.5

Ask: Respond only with pH (24 hrs) recorded for Cn1cc(-c2cn(-c3ccc(OC(F)(F)F)cc3)c(=O)c3ncn(C)c23)cn1.O=S(=O)(O)O [mono-sulfate crystalline]
Reply: 1.2

* * *

Experiment: Example 21 crossover pharmacokinetics of mono-tosylate and di-tosylate tablets in fasted dogs
Assay type: in vivo, beagle dogs
Settings: male, beagle, dog, plasma, po, 200 mg/tablet per dog, Example 21, fasted dogs, 200 mg tablet PO, mean; LLOQ 20 ng/mL; read-out: Plasma concentration of Compound I at 24 hours
READOUT KIND: concentration at 24 h (ng/mL)
Respond with the bare value in ng/mL.

Ask: Please report concentration at 24 h for the following molecule: Cc1ccc(S(=O)(=O)O)cc1.Cn1cc(-c2cn(-c3ccc(OC(F)(F)F)cc3)c(=O)c3ncn(C)c23)cn1 [mono-tosylate]
Reply: 1100

* * *

Assay: Solubility in pure water at 25° C. with PXRD of solid residues
Assay type: physicochemical
Settings: pure water, 25° C., 24 hours equilibration
Assign S 24 hrs to each entry below.
Number first, unit second.

Ask: Recall and state the measured S 24 hrs for Cn1cc(-c2cn(-c3ccc(OC(F)(F)F)cc3)c(=O)c3ncn(C)c23)cn1.Cn1cc(-c2cn(-c3ccc(OC(F)(F)F)cc3)c(=O)c3ncn(C)c23)cn1.O=S(=O)(O)c1cccc2c(S(=O)(=O)O)cccc12 [hemi-napadisylate] .
Reply: 1.83 mg/mL

Ask: Given the compound Br.Cn1cc(-c2cn(-c3ccc(OC(F)(F)F)cc3)c(=O)c3ncn(C)c23)cn1 [mono-HBr crystalline] , write its reported S 24 hrs.
Reply: 0.31 mg/mL

Ask: Return value of S 24 hrs for input Cn1cc(-c2cn(-c3ccc(OC(F)(F)F)cc3)c(=O)c3ncn(C)c23)cn1.Cn1cc(-c2cn(-c3ccc(OC(F)(F)F)cc3)c(=O)c3ncn(C)c23)cn1.O=S(=O)(O)CCS(=O)(=O)O [hemi-edisylate] , no commentary.
Reply: 0.99 mg/mL

Ask: Supply S 24 hrs value. Item: Cn1cc(-c2cn(-c3ccc(OC(F)(F)F)cc3)c(=O)c3ncn(C)c23)cn1.O=[N+]([O-])O [mono-nitrate crystalline]
Reply: 0.38 mg/mL

Ask: Given Br.Cn1cc(-c2cn(-c3ccc(OC(F)(F)F)cc3)c(=O)c3ncn(C)c23)cn1 [mono-HBr amorphous] , respond with its S 24 hrs.
Reply: 0.62 mg/mL

Ask: Using the record for Cl.Cl.Cn1cc(-c2cn(-c3ccc(OC(F)(F)F)cc3)c(=O)c3ncn(C)c23)cn1 [di-HCl crystalline] , state its measured S 24 hrs.
Reply: 0.76 mg/mL

Ask: Supply S 24 hrs value. Item: Cc1ccc(S(=O)(=O)O)cc1.Cn1cc(-c2cn(-c3ccc(OC(F)(F)F)cc3)c(=O)c3ncn(C)c23)cn1 [mono-tosylate]
Reply: 1.24 mg/mL

Ask: // fetch S 24 hrs given entry Cn1cc(-c2cn(-c3ccc(OC(F)(F)F)cc3)c(=O)c3ncn(C)c23)cn1.O=S(=O)(O)O [mono-sulfate amorphous]
Reply: 0.84 mg/mL

Ask: Give the value of S 24 hrs reported for the following: Cn1cc(-c2cn(-c3ccc(OC(F)(F)F)cc3)c(=O)c3ncn(C)c23)cn1.O=[N+]([O-])O [mono-nitrate amorphous]
Reply: 0.33 mg/mL
